# Test System: T1, IL-1β (UniProt P01584 117-269)
# T1 construct: Antigen immobilised on the Biacore chip
# Method Summary: Biacore, periplasmic extract
Readings of fold difference in affinity vs original for the listed binders
Measure: fold difference in affinity vs original (fold)

Binder: XPA23 light chain D28W (Fab, V domains shown) VH: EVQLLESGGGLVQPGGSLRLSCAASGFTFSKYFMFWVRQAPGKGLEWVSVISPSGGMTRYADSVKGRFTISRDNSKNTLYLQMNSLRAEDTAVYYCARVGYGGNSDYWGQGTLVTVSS VL: DIQMTQSPSSVSASVGDRLTIICRASQWINRWLAWYQQTPGNAPKLLIHSATSLQSGVPSRFSGSGSGTDFTLTINSLQPEDFATYYCQQADSFPLTFGGGTKVEIK
Unit Info: fold
Reading: 3.81
//
Binder: XPA23 light chain T52Y (Fab, V domains shown) VH: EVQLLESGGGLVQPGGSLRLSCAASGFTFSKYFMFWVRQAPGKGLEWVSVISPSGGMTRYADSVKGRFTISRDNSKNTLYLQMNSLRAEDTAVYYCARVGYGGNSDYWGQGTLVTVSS VL: DIQMTQSPSSVSASVGDRLTIICRASQDINRWLAWYQQTPGNAPKLLIHSAYSLQSGVPSRFSGSGSGTDFTLTINSLQPEDFATYYCQQADSFPLTFGGGTKVEIK
Unit Info: fold
Reading: 1.01

Hey, just so you know, these numbers are from patent US20110118131A1.
